ASSAY TARGET: Pyruvate dehydrogenase kinase (Rattus norvegicus) (UniProt Q63065+A6IPZ9+Q64536+O54937)
ASSAY PROTOCOL: Pyruvate dehydrogenase active/ Pyruvate dehydrogenase total was measured by sc administering the DCA in rat at a dose of 1.2 mmol/kg
Type: functional, organism-based
We label by threshold. Values of PDH active/PDH total strictly beneath 90% are 1.0. Values of 90% and up are 0.0.

Say whether its PDH active/PDH total is strictly beneath 90%. Entry: `COc1ccc(C(=O)C(=O)O)cc1`
0.0

Say whether its PDH active/PDH total is strictly beneath 90%. Entry: `O=C(O)C(=O)c1cc(I)c(O)c(I)c1`
1.0

Say whether its PDH active/PDH total is strictly beneath 90%. Entry: `O=C(O)C(=O)c1ccccc1`
1.0

Say whether its PDH active/PDH total is strictly beneath 90%. Entry: CSc1ccc(C(N)C(=O)O)cc1 (racemic)
1.0

Say whether its PDH active/PDH total is strictly beneath 90%. Entry: N[C@H](C(=O)O)c1ccc(O)cc1 (stereo in doubt; L-25)
1.0

Say whether its PDH active/PDH total is strictly beneath 90%. Entry: `CCSc1ccc(C(=O)C(=O)O)cc1`
1.0

Say whether its PDH active/PDH total is strictly beneath 90%. Entry: CCSc1ccc(C(N)C(=O)O)cc1 (racemic)
1.0

Say whether its PDH active/PDH total is strictly beneath 90%. Entry: N[C@H](C(=O)O)c1ccc(O)cc1 (stereo in doubt; D-26)
1.0

Say whether its PDH active/PDH total is strictly beneath 90%. Entry: `O=C(O)C(=O)c1ccc(O)cc1`
0.0
